Origin of the recorded values: the RNAGym collection of RNA variant scans (doi:10.7554/elife.90254)

B1: OR4K15 (parent)
chain: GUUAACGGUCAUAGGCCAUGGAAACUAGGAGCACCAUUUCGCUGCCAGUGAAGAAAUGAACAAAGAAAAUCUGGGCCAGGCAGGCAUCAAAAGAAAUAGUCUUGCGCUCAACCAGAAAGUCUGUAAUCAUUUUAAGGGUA

variants of: B1; assay: self-cleavage, relative activity (ratio to wild type); higher = more cleavage; in vitro, sequencing; the parent is a self-cleaving ribozyme
Respond with true (1) for self-cleavage values of 1 and above, false (0) for values below.

GUUAACGGUCAUAGGCCAUGGAAACUUGGAGCACCAUUUCGCUGCCAGUGAAGAAAUGAACAAAGAAAAUCUGGGCCAGGCAGGCAUCAAAAGAAAUAGUCUUGCGCUCAACCAGAAGGUCUGUAAUCAUUUUAAGGGUA [A27U A118G]; true (1)

[ask] # bool: self-cleavage of GUUGACGGUUAUAGGCCAUGGAAACUAGGAGCACCAUUUCGCUGCCAGUGAAGAAAUGAACAAAGAAAAUCUGGGCCAGGCAGGCAUCAAAAGAAAUAGUCUUGCGCUCAACCAGAAAGUCUGUAAUCAUUUUAAGGGUA [A4G C10U] >= 1
[reply] false (0)

[ask] # bool: self-cleavage of GUUAACGGUCAUAGGCCAUGGAAGCUAGGAGCACCAUUUCGCUGCCAGUGAAGAAAUGAACAAAGAAAAUCUGGGCCAGGCAGGCUUCAAAAGAAAUAGUCUUGCGCUCAACCAGAAAGUCUGUAAUCAUUUUAAGGGUA [A24G A86U] >= 1
[reply] true (1)

[ask] # bool: self-cleavage of GUUAACGGUCAUAGGCCAUGGAAACUAGGAGCACCAUUUCGCUGCCCGCGAAGAAAUGAACAAAGAAAAUCUGGGCCAGGCAGGCAUCAAAAGAAAUAGUCUUGCGCUCAACCAGAAAGUCUGUAAUCAUUUUAAGGGUA [A47C U49C] >= 1
[reply] true (1)

[ask] # bool: self-cleavage of GUUAACGGUCAUAGGCCAUGGAAACUAGGAGCACCCUUUCUCUGCCAGUGAAGAAAUGAACAAAGAAAAUCUGGGCCAGGCAGGCAUCAAAAGAAAUAGUCUUGCGCUCAACCAGAAAGUCUGUAAUCAUUUUAAGGGUA [A36C G41U] >= 1
[reply] true (1)

[ask] # bool: self-cleavage of GUUAACGGUCAUAGGCCACGGAAACUAGGAGCACCAUUUCGCUGCCAGUGAAGAAAUGAACAAAGAAAAUCUGGGCCAGGCAGGCAUCAAAAGAAAUAGUCUUGCGCUCGACCAGAAAGUCUGUAAUCAUUUUAAGGGUA [U19C A110G] >= 1
[reply] false (0)

[ask] # bool: self-cleavage of GUUAACGGUCAUAGGCCACGGAAACUAGGAGCACCAUUUCGCUGCCAGUGAAGAAAUGAACAAAGAAAAUCUGGGCCAGGCAGGCAUCAAAAGAAAUAGUCUUGCGCUCAACCAGAAAGUAUGUAAUCAUUUUAAGGGUA [U19C C121A] >= 1
[reply] true (1)
